test system: HEK-293T; assay: Multiplex assay against HEK293T; type: toxicity, cell-based; details: human, 12 h, 10 µM, compound concentration 10 uM, replicate 1;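 on Population Tubulin-Different-Phenotype (%): share of the cells with healthy nuclei that show this phenotype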
Label TRUE when Population Tubulin-Different-Phenotype (%) is at or above 30%; otherwise label FALSE.

-- ask Answer whether Population Tubulin-Different-Phenotype (%) of Cc1c(P(=S)(c2ccccc2)c2ccccc2)n2ccccc2[n+]1C/C=C/c1ccccc1.[Br-] is greater than or equal to 30%.
-- reply TRUE

-- ask // inclusive: Population Tubulin-Different-Phenotype (%) at least 30%? input: CN1C(=O)[C@@H](NC(=O)c2cc3ccccc3[nH]2)N=C(c2ccccc2)c2ccccc21 [DEVAZEPIDE]
-- reply TRUE

-- ask Textbook exercise: given the entry CC[C@@]1(O)C(=O)OCc2c1cc1n(c2=O)Cc2cc3ccccc3nc2-1 , state whether its Population Tubulin-Different-Phenotype (%) is greater than or equal to 30%.
-- reply FALSE

-- ask Item Cc1ccc(NC(=O)Nc2cc(C(F)(F)F)ccc2F)cc1Nc1ccc2c(c1)NC(=O)/C2=C\c1ccc[nH]1 with Population Tubulin-Different-Phenotype (%) of 30% or above?
-- reply FALSE

-- ask Is the recorded value of Population Tubulin-Different-Phenotype (%) equal to or greater than 30% for this compound? CC(/C=C1\SC(=S)N(CCCC(=O)Nc2ccc(C(=O)O)c(O)c2)C1=O)=C\c1ccccc1
-- reply TRUE

-- ask Say whether Oc1cccc(-c2nc(N3CCOCC3)c3oc4ncccc4c3n2)c1 shows Population Tubulin-Different-Phenotype (%) of 30% or more.
-- reply TRUE

-- ask Does C[C@@H](Oc1cc(-n2cnc3ccc(CN4CCN(C)CC4)cc32)sc1C(N)=O)c1ccccc1C(F)(F)F have a reported Population Tubulin-Different-Phenotype (%) of at least 30%?
-- reply TRUE

-- ask Please check the record CCCCCNC(=N)N/N=C/c1c[nH]c2ccc(OC)cc12.O=C(O)/C=C\C(=O)O [TEGASEROD MALEATE] and state if its Population Tubulin-Different-Phenotype (%) is at or above 30%.
-- reply FALSE

-- ask Reported Population Tubulin-Different-Phenotype (%) at or above 30%? CN(c1cc(C(F)(F)F)nc(OCCC(=O)O)n1)c1cccc2c1CCC2
-- reply FALSE

---

tested on: U2OS; assay: Multiplex assay against U2OS; type: toxicity, cell-based; conditions: human, 12 h, 1 µM, compound concentration 1 uM, replicate 1
Provide the recorded Population Mitotic Cells (%) for the entries that follow.
Answer as a quantity: numeral, then unit.

-- ask Reported Population Mitotic Cells (%) for Cc1ccc(NC(=O)Nc2cc(C(F)(F)F)ccc2F)cc1Nc1ccc2c(c1)NC(=O)/C2=C\c1ccc[nH]1 : what is it?
-- reply 68%

-- ask Population Mitotic Cells (%) lookup needed for NC(=O)c1ccc2nc(-c3ccc(C4(N)CCC4)cc3)c(-c3ccccc3)n2n1 , thanks.
-- reply 47%

-- ask # Population Mitotic Cells (%) lookup, item CCOC(=O)CCNc1cc(N2CCc3ccccc3CC2)nc(-c2ccccn2)n1
-- reply 62%

-- ask Entry CCCCN(CC)c1nc(C)nc2c1c(C)cn2-c1c(C)cc(C)cc1C.Cl : reported Population Mitotic Cells (%) = ?
-- reply 66%

-- ask Param item = CCCc1cc(C)[nH]c(=O)c1CNC(=O)c1cc(-c2ccc(N3CCN(C(C)C)CC3)nc2)cc2c1cnn2C(C)C ; retrieve measured Population Mitotic Cells (%).
-- reply 35%

-- ask Entry CC[C@H](Nc1ncnc2[nH]cnc12)c1nc2cccc(F)c2c(=O)n1-c1ccccc1 : reported Population Mitotic Cells (%) = ?
-- reply 53%

-- ask // query Population Mitotic Cells (%) value for entry N#Cc1cccc(C(=O)Nc2cc(-c3ccccc3)nn2-c2ccccc2)c1
-- reply 66%

-- ask Fill blank: measured Population Mitotic Cells (%) of the molecule Cc1ccc(S(=O)(=O)NC2c3ccccc3Oc3ccccc32)cc1 is ____.
-- reply 52%

-- ask For the molecule shown here, CN(c1cc(C(F)(F)F)nc(OCCC(=O)O)n1)c1cccc2c1CCC2 , give the reported Population Mitotic Cells (%).
-- reply 66%

---

test system: HEK-293T; experiment: Multiplex assay against HEK293T; format: toxicity, cell-based; settings: human, 24 h, 10 µM, compound concentration 10 uM, replicate 1
MEASURE: Population Mitotic Cells (%)
Express your answer in %, writing the number without its unit.

-- ask Can you look up the measured Population Mitotic Cells (%) of CCCc1cc(C)[nH]c(=O)c1CNC(=O)c1cc(-c2ccc(N3CCN(C(C)C)CC3)nc2)cc2c1cnn2C(C)C for me?
-- reply 8

-- ask Give its Population Mitotic Cells (%) value. Item: Cc1ccc(NC(=O)Nc2cc(C(F)(F)F)ccc2F)cc1Nc1ccc2c(c1)NC(=O)/C2=C\c1ccc[nH]1
-- reply 85

-- ask Fill in the blank: the reported Population Mitotic Cells (%) of CC[C@H](Nc1ncnc2[nH]cnc12)c1nc2cccc(F)c2c(=O)n1-c1ccccc1 is ____.
-- reply 81

-- ask # query: Population Mitotic Cells (%) of entry CC[C@@]1(O)C(=O)OCc2c1cc1n(c2=O)Cc2cc3ccccc3nc2-1
-- reply 76

-- ask Fill in: Population Mitotic Cells (%) of CC(/C=C1\SC(=S)N(CCCC(=O)Nc2ccc(C(=O)O)c(O)c2)C1=O)=C\c1ccccc1 is ___
-- reply 58

-- ask # get_value(readout='Population Mitotic Cells (%)', item= Oc1cccc(-c2nc(N3CCOCC3)c3oc4ncccc4c3n2)c1 )
-- reply 36

-- ask Would you mind telling me what Population Mitotic Cells (%) value was observed for Cl.Cn1c2c(c3ccc(Cl)c(Cl)c31)C(C#N)C1(CCNCC1)NC2=O (stereo not drawn) ?
-- reply 74

-- ask Requested field: Population Mitotic Cells (%). Item: CN1C(=O)[C@@H](NC(=O)c2cc3ccccc3[nH]2)N=C(c2ccccc2)c2ccccc21 [DEVAZEPIDE]
-- reply 43

-- ask Look up Population Mitotic Cells (%): NC(=O)c1ccc2nc(-c3ccc(C4(N)CCC4)cc3)c(-c3ccccc3)n2n1
-- reply 73

-- ask Consider the compound shown here: C=CC(=O)Nc1cc(-n2c(=O)ccc3cnc4ccc(-c5ccc(NS(C)(=O)=O)cc5)cc4c32)ccc1C What is its recorded Population Mitotic Cells (%)?
-- reply 51

-- ask Which Population Mitotic Cells (%) is reported for this compound? Cc1c(P(=S)(c2ccccc2)c2ccccc2)n2ccccc2[n+]1C/C=C/c1ccccc1.[Br-]
-- reply 47

-- ask Which measured Population Mitotic Cells (%) value corresponds to CC(Cc1ccc(O)c(O)c1)C(C)Cc1ccc(O)c(O)c1 (stereo not drawn) [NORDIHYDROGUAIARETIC ACID] ?
-- reply 72

-- ask Record request: Population Mitotic Cells (%) value, item CN(c1cc(C(F)(F)F)nc(OCCC(=O)O)n1)c1cccc2c1CCC2
-- reply 66

-- ask Could you tell me which Population Mitotic Cells (%) is on file for Cl.NC[C@@H]1O[C@H](C23CC4CC(CC(C4)C2)C3)Cc2c1ccc(O)c2O ?
-- reply 63

-- ask Give its Population Mitotic Cells (%) value. Item: CCCCN(CC)c1nc(C)nc2c1c(C)cn2-c1c(C)cc(C)cc1C.Cl
-- reply 35

-- ask Quick one: Population Mitotic Cells (%) of CCOC(=O)CCNc1cc(N2CCc3ccccc3CC2)nc(-c2ccccn2)n1 ?
-- reply 59

-- ask Give its Population Mitotic Cells (%) value. Item: CCCCCNC(=N)N/N=C/c1c[nH]c2ccc(OC)cc12.O=C(O)/C=C\C(=O)O [TEGASEROD MALEATE]
-- reply 45

-- ask Returns the measured Population Mitotic Cells (%) for the input compound. Input: N#CCNC(=O)c1ccc(-c2ccnc(Nc3ccc(N4CCOCC4)cc3)n2)cc1
-- reply 68

---

test system: Fibroblast; assay: Multiplex assay against human fibroblast; type: toxicity, cell-based; conditions: 12 h, 1 µM, compound concentration 1 uM, replicate 2
MEASURE: Population Pyknosed Nuclei (%)
Express it in %; write the number only.

-- ask Fill blank: measured Population Pyknosed Nuclei (%) of the compound Cc1c(P(=S)(c2ccccc2)c2ccccc2)n2ccccc2[n+]1C/C=C/c1ccccc1.[Br-] is ____.
-- reply 4

-- ask Could you tell me which Population Pyknosed Nuclei (%) is on file for CC(C)c1cc(Nc2nc(N3CCC[C@H](N)C3)ncc2C(N)=O)cc(C(C)C)n1 ?
-- reply 12

-- ask For Cc1c(Nc2ccc(S(=O)(=O)N3CCN(C)CC3)cc2F)nc2ccc(Nc3cnn(C4CC4)c3)cn2c1=O , what is its reported Population Pyknosed Nuclei (%)?
-- reply 13

-- ask Please report the recorded Population Pyknosed Nuclei (%) for CC(Cc1ccc(O)c(O)c1)C(C)Cc1ccc(O)c(O)c1 (stereo not drawn) [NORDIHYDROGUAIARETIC ACID] .
-- reply 3

-- ask Which Population Pyknosed Nuclei (%) reading was recorded for the compound Cc1ccc(NC(=O)Nc2cc(C(F)(F)F)ccc2F)cc1Nc1ccc2c(c1)NC(=O)/C2=C\c1ccc[nH]1 ?
-- reply 3

-- ask I am curious: what Population Pyknosed Nuclei (%) value has been reported for CC(C)C[C@H](NC(=O)[C@H](Cc1ccccc1)NC(=O)CNC(=O)CNC(=O)[C@@H](N)Cc1ccc(O)cc1)C(=O)O ?
-- reply 5

-- ask Endpoint output: Population Pyknosed Nuclei (%) of CC(C)[C@H](CO)Nc1nc(Nc2cccc(Cl)c2)c2ncn(C(C)C)c2n1 . Value?
-- reply 3

-- ask So what's the measured Population Pyknosed Nuclei (%) for this one? NC(=O)c1ccc2nc(-c3ccc(C4(N)CCC4)cc3)c(-c3ccccc3)n2n1
-- reply 12
